Hey, just so you know, these numbers are from patent US5731345A.

measurementTarget: Na^+, K^+ -ATPase
Format: biochemical
assayConditions: purified Na^+, hydrolysis of ^32 P-ATP
Catalogue of Inhibitory activity -log IC50 readings, one per entry.

See these solved cases before continuing.
CN(C)CCO/N=C/C[C@H](C1=CC(=O)OC1)[C@@]1(C)CC[C@H]2[C@@H](CC[C@@H]3C[C@@H](O)CC[C@@]32C)C1=O [Comp. I-i]    4.0
CN(C)CCO/N=C\C[C@H](C1=CC(=O)OC1)[C@@]1(C)CC[C@H]2[C@@H](CC[C@@H]3C[C@@H](O)CC[C@@]32C)C1=O [Comp. I-l]    4.2
C[C@]12CC[C@H](O)C[C@H]1CC[C@H]1C(=O)[C@@](C)([C@H](C/C=N/NC(=N)N)C3=CC(=O)OC3)CC[C@@H]12 [Comp. I-m]    4.1

Entry CC[C@H](C1=CC(=O)OC1)[C@@]1(C)CC[C@H]2[C@@H](CC[C@@H]3C[C@@H](O)CC[C@@]32C)C1=O [Comp. I-d] has what Inhibitory activity -log IC50?
5.6

Entry CC[C@H](C1=CC(=O)OC1)[C@@]1(C)CC[C@H]2[C@@H](CC[C@@H]3C[C@@H](O)CC[C@@]32C)[C@@H]1O [Comp. I-e] has what Inhibitory activity -log IC50?
5.1

Entry CC[C@H](c1ccoc1)[C@@]1(C)CC[C@H]2[C@@H](CC[C@@H]3C[C@@H](O)CC[C@@]32C)C1=O [Comp. I-c] has what Inhibitory activity -log IC50?
4.3
